- STUDY TARGET: Neuronal acetylcholine receptor; alpha4/beta2 (Rattus norvegicus, UniProt P09483+P12390)
- Sequence (P09483 whole entry): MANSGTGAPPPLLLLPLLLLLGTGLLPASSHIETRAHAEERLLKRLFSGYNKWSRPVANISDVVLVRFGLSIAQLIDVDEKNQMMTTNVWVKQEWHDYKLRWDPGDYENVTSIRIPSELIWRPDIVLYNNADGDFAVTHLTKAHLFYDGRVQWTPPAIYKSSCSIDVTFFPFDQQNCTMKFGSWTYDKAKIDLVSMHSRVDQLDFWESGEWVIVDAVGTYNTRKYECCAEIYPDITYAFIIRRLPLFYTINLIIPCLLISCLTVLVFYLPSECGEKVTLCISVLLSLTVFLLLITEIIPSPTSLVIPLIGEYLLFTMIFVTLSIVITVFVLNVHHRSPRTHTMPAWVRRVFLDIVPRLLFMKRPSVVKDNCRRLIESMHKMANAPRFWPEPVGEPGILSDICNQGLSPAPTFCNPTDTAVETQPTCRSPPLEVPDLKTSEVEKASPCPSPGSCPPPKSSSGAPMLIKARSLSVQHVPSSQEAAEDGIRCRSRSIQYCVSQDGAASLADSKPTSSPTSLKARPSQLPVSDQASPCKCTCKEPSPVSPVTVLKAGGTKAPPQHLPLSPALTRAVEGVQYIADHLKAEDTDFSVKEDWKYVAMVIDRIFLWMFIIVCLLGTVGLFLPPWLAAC
- Sequence (P12390 whole entry): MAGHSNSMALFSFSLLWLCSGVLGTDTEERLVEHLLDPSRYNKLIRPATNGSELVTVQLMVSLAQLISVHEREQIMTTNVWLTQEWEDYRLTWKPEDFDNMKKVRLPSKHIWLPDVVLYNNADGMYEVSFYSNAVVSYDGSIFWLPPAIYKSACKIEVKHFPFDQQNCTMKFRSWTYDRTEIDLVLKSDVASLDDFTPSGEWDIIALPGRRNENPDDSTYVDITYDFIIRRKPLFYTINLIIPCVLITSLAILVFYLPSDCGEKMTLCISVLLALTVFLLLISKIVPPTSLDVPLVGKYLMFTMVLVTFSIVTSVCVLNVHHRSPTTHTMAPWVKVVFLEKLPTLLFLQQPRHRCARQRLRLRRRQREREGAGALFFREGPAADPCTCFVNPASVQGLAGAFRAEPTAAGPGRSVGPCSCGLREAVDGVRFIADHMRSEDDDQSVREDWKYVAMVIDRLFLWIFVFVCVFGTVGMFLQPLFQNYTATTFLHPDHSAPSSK
- EXPERIMENT SUMMARY: Displacement of [3H]epibatidine from rat alpha4beta2 receptor expressed in HEK cells
- Type: cell-based, HEK293
In this section, each of the compounds is paired with its reported Ki.
Lab book: enter the figure in nM, no units written.

OCc1cc(-c2cncc(OC[C@@H]3CCN3)c2)on1; 0.31

# next compound below
**Q:** Provide Ki value for the following compound: Cl.OCCCc1cc(-c2cncc(OC[C@@H]3CCN3)c2)on1
**A:** 0.67

----------
- STUDY TARGET: Kappa-type opioid receptor (Homo sapiens)
- Sequence (P41145 whole entry): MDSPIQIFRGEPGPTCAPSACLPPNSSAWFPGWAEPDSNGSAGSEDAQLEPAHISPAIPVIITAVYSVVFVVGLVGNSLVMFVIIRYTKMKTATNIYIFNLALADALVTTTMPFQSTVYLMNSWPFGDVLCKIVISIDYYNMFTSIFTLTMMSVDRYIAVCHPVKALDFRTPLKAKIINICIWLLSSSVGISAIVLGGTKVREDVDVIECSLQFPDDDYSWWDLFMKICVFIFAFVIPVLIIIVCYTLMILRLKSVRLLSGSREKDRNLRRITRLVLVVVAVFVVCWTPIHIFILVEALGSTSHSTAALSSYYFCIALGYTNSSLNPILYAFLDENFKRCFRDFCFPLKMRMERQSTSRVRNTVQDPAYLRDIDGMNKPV
- EXPERIMENT SUMMARY: Binding affinity to kappa opioid receptor by radioligand displacement assay
pKi: −log10 of the molar value.
OUTCOME MEASURE: pKi

**Q:** Provide pKi value for the following molecule: Cl.OCCCc1cc(-c2cncc(OC[C@@H]3CCN3)c2)on1
**A:** < 5.00

----------
- STUDY TARGET: Neuronal acetylcholine receptor; alpha4/beta4 (Rattus norvegicus, UniProt P09483+P12392)
- Sequence (P09483 whole entry): as the sequence (P09483 whole entry) above
- Sequence (P12392 whole entry): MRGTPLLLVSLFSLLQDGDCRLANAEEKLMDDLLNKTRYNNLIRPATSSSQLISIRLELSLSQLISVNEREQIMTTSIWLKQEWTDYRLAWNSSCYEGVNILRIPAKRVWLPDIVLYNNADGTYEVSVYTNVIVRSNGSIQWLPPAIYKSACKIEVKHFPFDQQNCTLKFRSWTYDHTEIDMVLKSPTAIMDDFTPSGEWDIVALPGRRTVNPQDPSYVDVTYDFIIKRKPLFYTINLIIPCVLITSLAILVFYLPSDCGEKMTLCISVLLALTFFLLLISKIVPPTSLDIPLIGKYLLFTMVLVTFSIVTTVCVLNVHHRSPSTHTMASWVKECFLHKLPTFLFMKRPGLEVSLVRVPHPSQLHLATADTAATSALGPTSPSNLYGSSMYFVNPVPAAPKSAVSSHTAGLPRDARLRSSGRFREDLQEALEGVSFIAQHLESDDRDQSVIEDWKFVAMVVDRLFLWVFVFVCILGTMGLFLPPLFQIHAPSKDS
- EXPERIMENT SUMMARY: Displacement of [3H]epibatidine from rat alpha4beta4 nAChR receptor
In this section, each of the molecules is paired with its reported pKi.
Interpret pKi as the negative base-10 log of the concentration measured in mol/L.

OCc1cc(-c2cncc(OC[C@@H]3CCN3)c2)on1; 7.09

# next molecule below
**Q:** Report its pKi with Neuronal acetylcholine receptor; alpha4/beta4 (Rattus norvegicus, UniProt P09483+P12392) as the test system: Cl.OCCCc1cc(-c2cncc(OC[C@@H]3CCN3)c2)on1
**A:** 6.74

----------
- STUDY TARGET: Neuronal acetylcholine receptor; alpha4/beta2 (Homo sapiens, UniProt P17787+P43681)
- Sequence (P17787 whole entry): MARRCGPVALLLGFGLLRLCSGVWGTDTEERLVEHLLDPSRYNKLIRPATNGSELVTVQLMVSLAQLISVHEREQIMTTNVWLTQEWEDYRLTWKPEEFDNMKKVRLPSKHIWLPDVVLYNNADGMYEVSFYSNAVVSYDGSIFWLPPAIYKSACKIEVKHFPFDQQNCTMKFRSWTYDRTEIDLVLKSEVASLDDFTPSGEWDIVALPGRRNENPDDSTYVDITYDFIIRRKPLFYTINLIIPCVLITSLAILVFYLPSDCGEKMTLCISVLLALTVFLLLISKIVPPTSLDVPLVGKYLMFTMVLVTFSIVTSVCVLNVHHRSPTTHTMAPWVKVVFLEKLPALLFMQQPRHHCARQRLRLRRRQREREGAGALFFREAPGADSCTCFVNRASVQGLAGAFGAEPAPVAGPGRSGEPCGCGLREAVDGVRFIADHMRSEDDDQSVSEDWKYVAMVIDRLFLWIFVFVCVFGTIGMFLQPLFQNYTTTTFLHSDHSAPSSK
- Sequence (P43681 whole entry): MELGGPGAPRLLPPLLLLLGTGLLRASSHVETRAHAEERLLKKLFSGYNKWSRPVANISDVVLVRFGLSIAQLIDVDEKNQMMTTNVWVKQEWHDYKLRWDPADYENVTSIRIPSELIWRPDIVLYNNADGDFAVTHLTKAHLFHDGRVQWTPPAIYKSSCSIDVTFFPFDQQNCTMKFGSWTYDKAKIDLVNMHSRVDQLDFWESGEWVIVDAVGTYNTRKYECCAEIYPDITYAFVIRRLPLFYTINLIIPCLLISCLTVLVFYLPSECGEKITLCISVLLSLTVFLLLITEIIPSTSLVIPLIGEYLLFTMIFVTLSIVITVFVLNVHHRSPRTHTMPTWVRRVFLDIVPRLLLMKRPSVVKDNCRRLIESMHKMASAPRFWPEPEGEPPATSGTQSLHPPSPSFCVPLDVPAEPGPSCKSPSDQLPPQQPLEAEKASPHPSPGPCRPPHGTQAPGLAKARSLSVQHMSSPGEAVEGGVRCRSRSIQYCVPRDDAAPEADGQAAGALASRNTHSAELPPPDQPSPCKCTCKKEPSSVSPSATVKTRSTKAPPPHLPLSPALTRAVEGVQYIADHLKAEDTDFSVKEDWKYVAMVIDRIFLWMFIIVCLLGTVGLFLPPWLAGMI
- EXPERIMENT SUMMARY: Agonist activity at human alpha4beta2 nAChR expressed in human SH-EP1 cells assessed as increase of carbamylcholine-induced 86Rb+ ion efflux by liquid scintillation counting
In this section, each of the compounds is paired with its reported pEC50.
Interpret pEC50 as the negative base-10 log of the concentration measured in mol/L.

Cl.OCCCc1cc(-c2cncc(OC[C@@H]3CCN3)c2)on1; 7.44

# next compound below
**Q:** Provide pEC50 value for the following compound: OCc1cc(-c2cncc(OC[C@@H]3CCN3)c2)on1
**A:** 7.60

----------
- STUDY TARGET: Neuronal acetylcholine receptor; alpha4/beta2 (Rattus norvegicus, UniProt P09483+P12390)
- EXPERIMENT SUMMARY: Displacement of [3H]epibatidine from rat alpha4beta2 nAChR receptor
- Type: protein-complex assay
OUTCOME MEASURE: Ki (pM)
Lab book: enter the figure in pM, no units written.

**Q:** Provide Ki value for the following molecule: OCc1cc(-c2cncc(OC[C@@H]3CCN3)c2)on1
**A:** 310

**Q:** Provide Ki value for the following molecule: Cl.OCCCc1cc(-c2cncc(OC[C@@H]3CCN3)c2)on1
**A:** 670

Data credit: ChEMBL document CHEMBL1833861
